assay: Metabolic stability in mouse liver microsome assessed as half life at 1 uM measured after 60 min in presence of NADPH by LC-MS/MS analysis; type: ADME; details: liver microsomes
Value Kind: half-life at 1 µM (min)

[[record]]
chemical_string = "NC(=O)[C@@H]1C[C@H](F)CN1Cc1ccc(OCc2cccc(F)c2)cc1"
value_kind = "half-life at 1 µM"
output_unit = "min"
reported_measurement = 9.37


###

assay: Metabolic stability in monkey liver microsome assessed as half life at 1 uM measured after 60 min in presence of NADPH by LC-MS/MS analysis; type: ADME, Macaca mulatta; settings: rhesus monkey, liver microsomes
Value Kind: half-life at 1 µM (min)

[[record]]
chemical_string = "NC(=O)[C@@H]1C[C@H](F)CN1Cc1ccc(OCc2cccc(F)c2)cc1"
reported_measurement = 36.9


###

molecular target: Amine oxidase [flavin-containing] B (Homo sapiens, UniProt P27338); test: Inhibition of recombinant human MAO-B expressed in Sf9 cells preincubated for 15 min followed by addition of benzylamine and measured after 60 min by Luminex assay
Sequence (P27338 whole entry): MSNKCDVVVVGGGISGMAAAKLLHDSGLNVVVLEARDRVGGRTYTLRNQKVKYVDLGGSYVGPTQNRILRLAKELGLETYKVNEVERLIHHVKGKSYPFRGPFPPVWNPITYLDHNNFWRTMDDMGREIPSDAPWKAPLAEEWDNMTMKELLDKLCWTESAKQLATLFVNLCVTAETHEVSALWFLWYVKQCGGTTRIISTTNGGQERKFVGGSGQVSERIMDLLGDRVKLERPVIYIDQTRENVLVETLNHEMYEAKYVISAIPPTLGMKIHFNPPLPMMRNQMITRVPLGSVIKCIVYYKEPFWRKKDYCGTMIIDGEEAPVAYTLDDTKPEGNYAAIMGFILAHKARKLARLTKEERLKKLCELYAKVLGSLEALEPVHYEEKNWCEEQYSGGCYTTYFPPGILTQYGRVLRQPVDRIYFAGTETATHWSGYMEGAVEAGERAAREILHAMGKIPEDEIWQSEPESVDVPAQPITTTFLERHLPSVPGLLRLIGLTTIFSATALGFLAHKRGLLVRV
Listed next: entries and their corresponding IC50.
Value Kind: IC50

[[record]]
chemical_string = "NC(=O)[C@@H]1C[C@@H](F)CN1Cc1ccc(OCc2cccc(F)c2)cc1Cl"
reported_measurement = "> 10 µM"

[[record]]
chemical_string = "NC(=O)[C@@H]1C[C@@H](O)CN1Cc1ccc(OCc2cccc(F)c2)cc1"
reported_measurement = "> 10 µM"

[[record]]
chemical_string = "Cc1cc(OCc2cccc(F)c2)ccc1CN1C[C@H](F)C[C@H]1C(N)=O"
reported_measurement = "> 10 µM"


Reference source for all entries: ChEMBL document CHEMBL5042493
